system: MDA-MB-468 spheroids with HUVEC/MSC, viability; experiment: Anticancer human tumor MDA-MB-468 cell line growth inhibition [PI3K]; details: second compound 0.316 µM; first compound 3.16 µM; stronger effect = lower value;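 also: spheroids exposed to agents for seven days before readout; 100% = DMSO vehicle control viability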
ENDPOINT_LABEL: viability, T/C (%)
Record the value in %, omitting the unit from your answer.

Look over these answered cases.
| COMPOUND | TARGET_ENTITY | UNITS_LABEL | MEASURED |
| --- | --- | --- | --- |
| C=CC(=O)N1CCN(c2nc(=O)n(-c3c(C)ccnc3C(C)C)c3nc(-c4c(O)cccc4F)c(F)cc23)C(C)C1 (stereo unspecified) + Cc1nc(NC(=O)N2CCCC2C(N)=O)sc1-c1ccnc(C(C)(C)C(F)(F)F)c1 | MDA-MB-468 spheroids with HUVEC/MSC, viability | % | 86.2 |
| CC(Cn1ccc(-c2ccc(C#N)c(Cl)c2)n1)NC(=O)c1cc(C(C)O)[nH]n1 (stereo unspecified) + CC(Nc1ncnc2nc[nH]c12)c1cc2cccc(Cl)c2c(=O)n1-c1ccccc1 | MDA-MB-468 spheroids with HUVEC/MSC, viability | % | 70.7 |

(Q) Which value of viability, T/C has been reported for Cn1ncc(Cl)c1-c1cc(C(=O)NC(CN)Cc2cccc(F)c2)sc1Cl (stereo unspecified) + CC(Nc1ncnc2nc[nH]c12)c1cc2cccc(Cl)c2c(=O)n1-c1ccccc1 in the records?
(A) 29.1

(Q) Which value of viability, T/C has been reported for Cn1nccc1Nc1nccc(-c2ccn(C(CO)c3ccc(Cl)c(F)c3)c(=O)c2)n1 (stereo unspecified) + CC(Nc1ncnc2nc[nH]c12)c1cc2cccc(Cl)c2c(=O)n1-c1ccccc1 in the records?
(A) 78.5

(Q) Which value of viability, T/C has been reported for Cn1nccc1Nc1nccc(-c2ccn(C(CO)c3ccc(Cl)c(F)c3)c(=O)c2)n1 (stereo unspecified) + COc1c(OCCCN2CCOCC2)ccc2c3n(c(=NC(=O)c4cnc(N)nc4)nc12)CCN3 in the records?
(A) 26

(Q) Which value of viability, T/C has been reported for CC(C)NCC(C(=O)N1CCN(c2ncnc3c2C(C)CC3O)CC1)c1ccc(Cl)cc1 (stereo unspecified) + COc1c(OCCCN2CCOCC2)ccc2c3n(c(=NC(=O)c4cnc(N)nc4)nc12)CCN3 in the records?
(A) 15.1
